- procedure text: physchem
- Format: physicochemical
- condition parameters: 25 °C, water, thermodynamic from solid
observation type: solubility at 12 h
Don't forget the unit after the value.

For record CC(C)(O)CNc1nc(Nc2ccnc(C(F)(F)F)c2)nc(-c2cccc(C(F)(F)F)n2)n1 the listed solubility at 12 h is 6 µg/mL
